System: Wnt activity (Sp5-Luc reporter, SW480 colon carcinoma cells)
Test: Screening assay for Wnt activity: Sp5-Luc reporter gene assay in SW480 cells
Assay type: cell-based
Details: Homo sapiens, overnight incubation, 10-point dose-response from 10 μM
Protocol: The screening assay for Wnt activity is described as follows. […] SW480 colon carcinoma cells were transduced with a lentiviral vector expressing luciferase with a human Sp5 promoter consisting of a sequence of eight TCF/LEF binding sites. […] Following incubation, 20 μl of BrightGlo luminescence reagent (Promega) was added to each well of the 384-well assay plates. The plates were placed on an orbital shaker for 2 min and then luminescence was quantified using the Envision (Perkin Elmer) plate reader. […]
PROPERTY: EC50

COMPOUND	OBSERVED VALUE
c1cc(-c2ccc3[nH]nc(-c4nc5c(-c6ccncc6)ccnc5[nH]4)c3n2)ccn1 [Compound 130]	> 10 µM
Fc1cccc(-c2ccnc3[nH]c(-c4n[nH]c5ccc(-c6cncc(OC7CCNCC7)c6)nc45)nc23)c1 [Compound 512]	> 10 µM
O=C(Cc1ccccc1)Nc1cncc(-c2ccc3[nH]nc(-c4nc5c(-c6ccncc6)ccnc5[nH]4)c3n2)c1 [Compound 122]	> 10 µM
CC(C)C(=O)Nc1cncc(-c2ccc3[nH]nc(-c4nc5c(-c6cccnc6)ccnc5[nH]4)c3n2)c1 [Compound 93]	> 10 µM
CCCC(=O)Nc1cncc(-c2ccc3[nH]nc(-c4nc5c(-c6ccncc6)ccnc5[nH]4)c3n2)c1 [Compound 129]	> 10 µM
O=C(Nc1cncc(-c2ccc3[nH]nc(-c4nc5c(-c6ccccn6)ccnc5[nH]4)c3n2)c1)c1ccccc1 [Compound 151]	> 10 µM
NC1CN(c2cncc(-c3ccc4[nH]nc(-c5nc6c(-c7ccc(Cl)s7)ccnc6[nH]5)c4n3)n2)C1 [Compound 1068]	2.3 µM
c1cc(-c2ccc3c(c2)OCO3)c2nc(-c3n[nH]c4ccc(C5CCNCC5)nc34)[nH]c2n1 [Compound 1108]	> 10 µM
O=C(Nc1cncc(-c2ccc3[nH]nc(-c4nc5cccnc5[nH]4)c3n2)c1)C1CCCCC1 [Compound 275]	> 10 µM
COc1cncc(-c2ccc3[nH]nc(-c4nc5c(-c6ccoc6)ccnc5[nH]4)c3n2)c1 [Compound 692]	> 10 µM
O=C(Nc1cncc(-c2ccc3[nH]nc(-c4nc5c(-c6cccs6)ccnc5[nH]4)c3n2)c1)C1CC1 [Compound 356]	2.28 µM
c1cc(-c2ccnc3[nH]c(-c4n[nH]c5ccc(-c6cncc(OC7CCNCC7)c6)nc45)nc23)ccn1 [Compound 576]	> 10 µM
CS(=O)(=O)NCc1cc(F)cc(-c2ccnc3[nH]c(-c4n[nH]c5ccc(-c6cncc(CNCc7ccccc7)c6)nc45)nc23)c1 [Compound 500]	3.58 µM
c1ccc(CNCc2cncc(-c3ccc4[nH]nc(-c5nc6c(-c7ccsc7)ccnc6[nH]5)c4n3)c2)cc1 [Compound 304]	1.97 µM
COc1cccc(-c2ccnc3[nH]c(-c4n[nH]c5ccc(-c6cncc(NC(=O)C7CCCCC7)c6)nc45)nc23)c1 [Compound 1012]	1.91 µM
Cn1cc(-c2ccc3[nH]nc(-c4nc5c(-c6cccs6)ccnc5[nH]4)c3n2)cn1 [Compound 700]	> 10 µM
c1cc(N2CCCCC2)c2nc(-c3n[nH]c4ccc(-c5cncc(OCCN6CCCC6)c5)nc34)[nH]c2n1 [Compound 610]	> 10 µM
CCNCc1cncc(-c2ccc3[nH]nc(-c4nc5c(-c6ccoc6)ccnc5[nH]4)c3n2)c1 [Compound 314]	3.83 µM
CCCC(=O)Nc1cncc(-c2ccc3[nH]nc(-c4nc5c(-c6ccsc6)ccnc5[nH]4)c3n2)c1 [Compound 297]	0.822 µM
Cc1ccc(-c2ccnc3[nH]c(-c4n[nH]c5ccc(-c6cncc(NC(=O)C7CCCC7)c6)nc45)nc23)s1 [Compound 414]	> 10 µM
c1cc(-c2ccoc2)c2nc(-c3n[nH]c4ccc(-c5cncc(CNCC6CCCC6)c5)nc34)[nH]c2n1 [Compound 333]	2.72 µM
Cc1cn(-c2ccnc3[nH]c(-c4n[nH]c5ccc(-c6cncc(N7CC(N)C7)n6)nc45)nc23)cn1 [Compound 622]	> 10 µM
CC(C)C(=O)Nc1cncc(-c2ccc3[nH]nc(-c4nc5c(N6CCN(C)CC6)ccnc5[nH]4)c3n2)c1 [Compound 233]	> 10 µM

The origin of these recorded values is patent US10329309B2.
